Kindly supply the reported nH, Hill slope values for the records listed here.
- EXPERIMENTAL TARGET: hCav1.2 (Homo sapiens)
- METHOD: Automated patch clamp, hCav1.2 current block
- MEASUREMENT CONTEXT: site s16_p3
Answers are plain numbers.

Look over these answered cases.
COMPOUND | VALUE
COc1cc(N)c(Cl)cc1C(=O)NC1CCN(CCCOc2ccc(F)cc2)CC1OC (stereo not drawn) [cis, cisapride] | 0.24
CC(C)(C)c1ccc(C(O)CCCN2CCC(C(O)(c3ccccc3)c3ccccc3)CC2)cc1 (stereo not drawn) | 0.65
CC(C)COCC(CN(Cc1ccccc1)c1ccccc1)N1CCCC1 (stereo not drawn) | 0.51

Go through the list and state nH, Hill slope for each entry.
1. Cc1nccn1CC1CCc2c(c3ccccc3n2C)C1=O (stereo not drawn)
2. COc1ccccc1OCC(O)CN1CCN(CC(=O)Nc2c(C)cccc2C)CC1 (stereo not drawn)
3. Cc1cccc(C)c1OCC(C)N (stereo not drawn)

Result block:
[0.42, 0.24, 0.80]

* * *

- EXPERIMENTAL TARGET: hCav1.2 (Homo sapiens, UniProt Q13936)
- Sequence (Q13936 whole entry): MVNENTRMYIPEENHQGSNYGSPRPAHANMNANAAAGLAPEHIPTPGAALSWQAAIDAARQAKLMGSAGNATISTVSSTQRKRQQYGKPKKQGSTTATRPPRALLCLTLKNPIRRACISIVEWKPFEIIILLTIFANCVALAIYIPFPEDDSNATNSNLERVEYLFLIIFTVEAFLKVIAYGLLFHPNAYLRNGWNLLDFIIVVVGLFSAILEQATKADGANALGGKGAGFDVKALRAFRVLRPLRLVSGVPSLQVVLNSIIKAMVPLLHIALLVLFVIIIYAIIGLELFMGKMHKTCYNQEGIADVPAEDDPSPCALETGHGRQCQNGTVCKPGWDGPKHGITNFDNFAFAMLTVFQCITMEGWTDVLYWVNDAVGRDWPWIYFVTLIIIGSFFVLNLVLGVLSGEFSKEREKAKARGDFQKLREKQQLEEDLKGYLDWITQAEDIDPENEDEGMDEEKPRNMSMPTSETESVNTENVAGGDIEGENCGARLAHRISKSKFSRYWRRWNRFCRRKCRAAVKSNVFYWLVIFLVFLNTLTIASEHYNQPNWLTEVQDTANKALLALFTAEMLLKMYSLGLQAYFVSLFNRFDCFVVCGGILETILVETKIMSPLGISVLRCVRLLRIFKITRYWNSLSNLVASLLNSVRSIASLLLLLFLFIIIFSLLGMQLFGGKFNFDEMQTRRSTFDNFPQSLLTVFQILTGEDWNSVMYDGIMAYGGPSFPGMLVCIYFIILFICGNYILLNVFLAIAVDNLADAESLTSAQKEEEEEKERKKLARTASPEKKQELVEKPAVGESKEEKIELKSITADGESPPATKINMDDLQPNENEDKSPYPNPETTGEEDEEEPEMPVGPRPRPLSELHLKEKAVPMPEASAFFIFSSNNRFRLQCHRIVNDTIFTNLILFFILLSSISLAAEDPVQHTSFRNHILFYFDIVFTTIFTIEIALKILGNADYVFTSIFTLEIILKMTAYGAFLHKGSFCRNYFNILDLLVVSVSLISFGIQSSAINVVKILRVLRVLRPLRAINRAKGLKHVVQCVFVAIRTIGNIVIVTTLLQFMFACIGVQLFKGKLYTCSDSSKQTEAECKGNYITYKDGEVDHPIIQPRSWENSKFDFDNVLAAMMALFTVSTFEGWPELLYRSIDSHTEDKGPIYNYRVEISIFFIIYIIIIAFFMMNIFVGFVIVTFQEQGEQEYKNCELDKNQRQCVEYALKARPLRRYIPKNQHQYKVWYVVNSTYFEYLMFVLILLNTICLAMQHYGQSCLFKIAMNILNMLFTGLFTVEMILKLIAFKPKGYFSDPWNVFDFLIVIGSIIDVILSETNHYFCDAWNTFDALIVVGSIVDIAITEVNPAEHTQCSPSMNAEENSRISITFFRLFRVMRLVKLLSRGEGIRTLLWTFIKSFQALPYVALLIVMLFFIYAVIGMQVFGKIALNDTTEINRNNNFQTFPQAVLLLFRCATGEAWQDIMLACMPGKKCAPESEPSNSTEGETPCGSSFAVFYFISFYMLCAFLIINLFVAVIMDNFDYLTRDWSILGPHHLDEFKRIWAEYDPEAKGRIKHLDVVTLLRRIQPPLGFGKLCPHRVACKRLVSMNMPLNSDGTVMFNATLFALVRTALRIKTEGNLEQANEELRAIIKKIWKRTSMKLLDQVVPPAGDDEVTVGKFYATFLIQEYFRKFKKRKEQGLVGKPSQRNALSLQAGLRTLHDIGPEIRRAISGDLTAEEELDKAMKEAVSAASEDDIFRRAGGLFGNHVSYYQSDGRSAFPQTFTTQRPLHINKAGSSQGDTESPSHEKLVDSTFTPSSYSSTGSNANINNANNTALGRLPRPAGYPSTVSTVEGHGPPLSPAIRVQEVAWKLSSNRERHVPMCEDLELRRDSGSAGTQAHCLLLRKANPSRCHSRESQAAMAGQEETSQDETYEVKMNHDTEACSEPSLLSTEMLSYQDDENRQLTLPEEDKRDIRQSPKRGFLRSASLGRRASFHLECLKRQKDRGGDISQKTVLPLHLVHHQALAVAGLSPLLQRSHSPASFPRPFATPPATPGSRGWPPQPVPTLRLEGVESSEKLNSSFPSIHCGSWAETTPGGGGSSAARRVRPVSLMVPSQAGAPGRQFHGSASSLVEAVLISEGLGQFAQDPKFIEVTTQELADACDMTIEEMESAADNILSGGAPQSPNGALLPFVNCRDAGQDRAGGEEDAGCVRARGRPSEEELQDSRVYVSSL
- Sequence (Q08289 whole entry partner): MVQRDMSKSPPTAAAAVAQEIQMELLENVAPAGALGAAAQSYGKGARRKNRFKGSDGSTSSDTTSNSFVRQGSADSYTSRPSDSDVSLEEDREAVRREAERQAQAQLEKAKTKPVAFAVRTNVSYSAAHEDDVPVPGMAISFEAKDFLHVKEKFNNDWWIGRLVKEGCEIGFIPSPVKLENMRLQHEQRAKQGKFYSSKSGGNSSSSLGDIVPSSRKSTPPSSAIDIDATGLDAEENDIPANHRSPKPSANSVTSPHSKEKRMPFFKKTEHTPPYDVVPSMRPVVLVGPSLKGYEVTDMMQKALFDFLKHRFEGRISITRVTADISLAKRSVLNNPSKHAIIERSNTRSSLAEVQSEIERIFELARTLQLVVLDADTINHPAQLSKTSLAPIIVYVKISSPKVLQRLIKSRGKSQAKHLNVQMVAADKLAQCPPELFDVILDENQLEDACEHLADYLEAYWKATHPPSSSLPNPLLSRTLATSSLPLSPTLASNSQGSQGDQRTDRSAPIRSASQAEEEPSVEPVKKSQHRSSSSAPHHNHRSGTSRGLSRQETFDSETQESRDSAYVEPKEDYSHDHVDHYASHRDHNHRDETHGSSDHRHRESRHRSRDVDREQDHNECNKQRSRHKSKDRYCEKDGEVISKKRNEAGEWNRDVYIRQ
- Sequence (P54289 25-956 partner limits assumed): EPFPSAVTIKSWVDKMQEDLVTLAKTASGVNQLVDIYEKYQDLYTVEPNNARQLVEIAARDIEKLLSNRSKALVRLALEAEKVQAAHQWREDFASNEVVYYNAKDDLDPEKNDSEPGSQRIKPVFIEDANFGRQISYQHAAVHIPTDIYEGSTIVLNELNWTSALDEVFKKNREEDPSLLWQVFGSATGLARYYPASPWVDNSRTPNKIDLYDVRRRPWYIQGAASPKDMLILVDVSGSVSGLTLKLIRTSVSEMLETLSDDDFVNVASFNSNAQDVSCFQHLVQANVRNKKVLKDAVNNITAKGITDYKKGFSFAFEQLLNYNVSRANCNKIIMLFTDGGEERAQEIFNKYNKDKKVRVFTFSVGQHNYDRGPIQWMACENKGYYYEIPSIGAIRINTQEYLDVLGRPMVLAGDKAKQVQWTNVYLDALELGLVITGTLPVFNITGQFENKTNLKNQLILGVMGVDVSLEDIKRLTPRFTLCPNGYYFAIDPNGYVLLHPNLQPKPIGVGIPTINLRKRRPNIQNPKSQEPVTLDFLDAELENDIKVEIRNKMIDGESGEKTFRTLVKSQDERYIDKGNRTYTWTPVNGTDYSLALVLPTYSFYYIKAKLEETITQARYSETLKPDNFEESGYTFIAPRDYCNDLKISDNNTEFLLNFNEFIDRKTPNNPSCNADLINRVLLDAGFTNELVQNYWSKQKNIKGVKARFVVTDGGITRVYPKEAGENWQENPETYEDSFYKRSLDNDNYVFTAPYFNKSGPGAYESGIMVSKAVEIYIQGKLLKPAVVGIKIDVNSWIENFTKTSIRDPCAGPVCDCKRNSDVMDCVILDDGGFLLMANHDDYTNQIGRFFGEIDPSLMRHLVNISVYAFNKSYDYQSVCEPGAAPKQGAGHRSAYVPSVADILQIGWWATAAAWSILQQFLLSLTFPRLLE
- Sequence (P54289 957-1103 partner limits assumed): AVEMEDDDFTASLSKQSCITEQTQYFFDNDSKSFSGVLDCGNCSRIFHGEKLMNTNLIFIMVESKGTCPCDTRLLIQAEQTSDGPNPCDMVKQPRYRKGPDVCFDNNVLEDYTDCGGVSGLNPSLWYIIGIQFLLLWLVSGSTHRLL
- METHOD: Automated patch clamp, hCav1.2 current block
- MEASUREMENT CONTEXT: log IC50, half-maximal inhibitory concentration, site s16_p3
Field: pIC50. Provide a value for each of the compounds that follow.
Give bare numbers, as −log10 of the molar value.

Please review the following examples before continuing.
COMPOUND | pIC50
COc1cc(N)c(Cl)cc1C(=O)NC1CCN(CCCOc2ccc(F)cc2)CC1OC (stereo not drawn) [cis, cisapride] | 6.35
COc1ccccc1OCC(O)CN1CCN(CC(=O)Nc2c(C)cccc2C)CC1 (stereo not shown) | 2.51
Cc1nccn1CC1CCc2c(c3ccccc3n2C)C1=O (stereo not shown) | 5.18

Next compound, please.
Query block: Would you mind telling me what pIC50 value was observed for Cc1cccc(C)c1OCC(C)N (stereo not shown) ?
Result block: 3.60

* * *

- EXPERIMENTAL TARGET: peak hNav1.5 (Homo sapiens)
- Construct: expressed in transfected cells; host or cells: HEK293 or CHO, depending on site
- METHOD: Automated patch clamp, peak hNav1.5 current block
- Assay type: cell-based
PROPERTY NAME: IC50

Query block: Requested field: IC50. Item: CC(C)COCC(CN(Cc1ccccc1)c1ccccc1)N1CCCC1 (stereo not shown)
Result block: 2450 nM

* * *

- EXPERIMENTAL TARGET: UniProt Q13936
- METHOD: Automated patch clamp, hCav1.2 current block
- MEASUREMENT CONTEXT: site s02_p2, corrected for rundown; 3.00E-07 mol/L
Please respond with reported Peak hCav1.2 Ca2+ current inhibition, Mean for every item in the list.
Answers are plain numbers, in %.

COMPOUND | VALUE
CC(C)(C)c1ccc(C(O)CCCN2CCC(C(O)(c3ccccc3)c3ccccc3)CC2)cc1 (stereo not shown) | 74.7
CC(C)COCC(CN(Cc1ccccc1)c1ccccc1)N1CCCC1 (stereo not shown) | 34.4
Cc1nccn1CC1CCc2c(c3ccccc3n2C)C1=O (stereo not shown) | -6.3

Query block: If you can, please state the reported Peak hCav1.2 Ca2+ current inhibition, Mean value of COc1cc(N)c(Cl)cc1C(=O)NC1CCN(CCCOc2ccc(F)cc2)CC1OC (stereo not drawn) [cis, cisapride] .
Result block: 14.5

* * *

- EXPERIMENTAL TARGET: hERG (Homo sapiens, UniProt Q12809)
- METHOD: Automated patch clamp, hERG current block (consensus step-ramp protocol)
- MEASUREMENT CONTEXT: human, hERG K+ current inhibition, Mean, site_platform s12_p2; 1.00E-04 mol/L
PROPERTY NAME: inhibition at 0.0001 mol/L (%)
Numbers only, in %.

Query block: Which measured inhibition at 0.0001 mol/L value corresponds to Cc1cccc(C)c1OCC(C)N (stereo not shown) [mex, mexiletine] ?
Result block: 56.6

* * *

- EXPERIMENTAL TARGET: hCav1.2 (Homo sapiens, UniProt Q13936)
- METHOD: Automated patch clamp, hCav1.2 current block
- MEASUREMENT CONTEXT: site s16_p3; 3.00E-07 mol/L
PROPERTY NAME: Peak hCav1.2 Ca2+ current inhibition, Mean (%)
Give bare numbers, in %.

COMPOUND | EXPERIMENTAL TARGET | VALUE
Cc1nccn1CC1CCc2c(c3ccccc3n2C)C1=O (stereo not shown) | hCav1.2 (Homo sapiens, UniProt Q13936) | 20.6
CC(C)(C)c1ccc(C(O)CCCN2CCC(C(O)(c3ccccc3)c3ccccc3)CC2)cc1 (stereo not shown) | hCav1.2 (Homo sapiens, UniProt Q13936) | 52.1
CC(C)COCC(CN(Cc1ccccc1)c1ccccc1)N1CCCC1 (stereo not shown) | hCav1.2 (Homo sapiens, UniProt Q13936) | 45.8

We now examine a further compound.
Query block: Query (compound): COc1cc(N)c(Cl)cc1C(=O)NC1CCN(CCCOc2ccc(F)cc2)CC1OC (stereo not drawn) [cis, cisapride] ; field requested: Peak hCav1.2 Ca2+ current inhibition, Mean
Result block: 49.1

* * *

- EXPERIMENTAL TARGET: hERG (Homo sapiens, UniProt Q12809)
- METHOD: Automated patch clamp, hERG current block (consensus step-ramp protocol)
- MEASUREMENT CONTEXT: hERG K+ current log IC50, s01_p1, CHO, 23 °C
PROPERTY NAME: pIC50
Answers are plain numbers, as −log10 of the molar value.

Query block: For Cc1cccc(C)c1OCC(C)N (stereo not shown) , what is its reported pIC50?
Result block: 3.86

* * *

- EXPERIMENTAL TARGET: UniProt:Q12809
- METHOD: Automated patch clamp, hERG current block (consensus step-ramp protocol)
- MEASUREMENT CONTEXT: hERG K+ current log IC50, s04_p3, CHO, room temperature
PROPERTY NAME: IC50 (µM)
One number for each entry, in µM.

Query block: Which IC50 reading was recorded for the compound Cc1cccc(C)c1OCC(C)N (stereo not shown) [mex, mexiletine] ?
Result block: 47.9

* * *

- EXPERIMENTAL TARGET: hERG (Homo sapiens, UniProt Q12809)
- METHOD: Automated patch clamp, hERG current block (consensus step-ramp protocol)
- MEASUREMENT CONTEXT: hERG K+ current log IC50, s16_p3, HEK293, room temperature
PROPERTY NAME: IC50 (µM)
Numbers only, in µM.

Query block: // query IC50 value for entry Cc1cccc(C)c1OCC(C)N (stereo not shown)
Result block: 85.1

* * *

- EXPERIMENTAL TARGET: hERG (Homo sapiens)
- METHOD: Automated patch clamp, hERG current block (consensus step-ramp protocol)
- MEASUREMENT CONTEXT: human, hERG K+ current inhibition, Mean, site_platform s10_p3; 1.00E-06 mol/L
PROPERTY NAME: inhibition at 4 min, 1e-06 mol/L (%)
Numbers only, in %.

Query block: Please look up its inhibition at 4 min, 1e-06 mol/L: Cc1cccc(C)c1OCC(C)N (stereo not shown)
Result block: -3.5

* * *

- EXPERIMENTAL TARGET: hERG (Homo sapiens)
- METHOD: Automated patch clamp, hERG current block (consensus step-ramp protocol)
- MEASUREMENT CONTEXT: human, recombinant cells expressing hERG, hERG K+ current inhibition, Mean, site_platform s12_p2; 1.00E-05 mol/L
PROPERTY NAME: inhibition at 1e-05 mol/L (%)
Numbers only, in %.

Query block: Please look up its inhibition at 1e-05 mol/L: Cc1nccn1CC1CCc2c(c3ccccc3n2C)C1=O (stereo not shown) [ond, ondansetron]
Result block: 91.6

* * *

- EXPERIMENTAL TARGET: hCav1.2 (Homo sapiens, UniProt Q13936)
- METHOD: Automated patch clamp, hCav1.2 current block
- MEASUREMENT CONTEXT: log IC50, half-maximal inhibitory concentration, site s02_p2, corrected for rundown
PROPERTY NAME: IC50 (µM)
Answers are plain numbers, in µM.

Query block: # query: IC50 of entry COc1ccccc1OCC(O)CN1CCN(CC(=O)Nc2c(C)cccc2C)CC1 (stereo not shown) [ran, ranolazine]
Result block: 501

* * *

- EXPERIMENTAL TARGET: hERG (Homo sapiens, UniProt Q12809)
- METHOD: Automated patch clamp, hERG current block (consensus step-ramp protocol)
- MEASUREMENT CONTEXT: log IC50, hERG K+ current inhibition, site_platform s13_p2
PROPERTY NAME: IC50 (µM)
Answers are plain numbers, in µM.

Query block: Entry under review: Cc1cccc(C)c1OCC(C)N (stereo not shown) . Reported IC50?
Result block: 34.7

* * *

- EXPERIMENTAL TARGET: hERG (Homo sapiens, UniProt Q12809)
- METHOD: Automated patch clamp, hERG current block (consensus step-ramp protocol)
- MEASUREMENT CONTEXT: human, recombinant cells expressing hERG, hERG K+ current inhibition, Mean, site_platform s11_p1; 1.00E-05 mol/L
PROPERTY NAME: inhibition at 7 min, 1e-05 mol/L (%)
Numbers only, in %.

Query block: Quick one: inhibition at 7 min, 1e-05 mol/L of Cc1nccn1CC1CCc2c(c3ccccc3n2C)C1=O (stereo not shown) ?
Result block: 89.6
